Values from the RNAGym collection of RNA variant scans (doi:10.1073/pnas.2313332121)

B1: TPR 5TU (parent)
chain: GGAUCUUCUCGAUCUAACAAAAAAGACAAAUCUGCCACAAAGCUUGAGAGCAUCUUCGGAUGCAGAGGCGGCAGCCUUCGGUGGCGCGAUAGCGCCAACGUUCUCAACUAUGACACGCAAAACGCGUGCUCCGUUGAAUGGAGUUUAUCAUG

# Variants of: B1
# test.protocol: polymerase ribozyme fitness, log enrichment relative to wild type (log ratio); higher = more active; in vitro selection for triplet polymerase activity
Fewer inactive variants are shown than the library holds.
polymerase ribozyme fitness (log ratio) values, listed per item
observable: polymerase ribozyme fitness (log ratio)

* G48C C125G | -0.571
* A40U C87U A89G | -3.2
* A20U U45A C87G | -4.13
* A40U G94U G136C | -4.02
* A41U G124A | -1.29
* C5A G81A | 0.566
* U45G U56A | 0.0147
* G92A U104G A110G | -3.8
* U104A A137C | -3.89
* G94U U101G A120U A142U | -2.08
* G50A U55A C95A | -1.86
* C18G C79G | -3.9
* G59A G88A | -4.04
* G81C C85U A107C G126A | -4.16
* A20C U53A | -2.16
* C125U G141C | -3.85
* G50U A97U U102A G124A | -2.31
* A19U A52U A97G | -2.59
* C38U C95G U102A | -2.51
